# ASSAY TARGET: 5-HT2A receptor (Rattus norvegicus, UniProt P14842)
# Construct: from tissue; host or cells: Sprague-Dawley rat frontal cortex membranes
# Sequence (P14842 whole entry): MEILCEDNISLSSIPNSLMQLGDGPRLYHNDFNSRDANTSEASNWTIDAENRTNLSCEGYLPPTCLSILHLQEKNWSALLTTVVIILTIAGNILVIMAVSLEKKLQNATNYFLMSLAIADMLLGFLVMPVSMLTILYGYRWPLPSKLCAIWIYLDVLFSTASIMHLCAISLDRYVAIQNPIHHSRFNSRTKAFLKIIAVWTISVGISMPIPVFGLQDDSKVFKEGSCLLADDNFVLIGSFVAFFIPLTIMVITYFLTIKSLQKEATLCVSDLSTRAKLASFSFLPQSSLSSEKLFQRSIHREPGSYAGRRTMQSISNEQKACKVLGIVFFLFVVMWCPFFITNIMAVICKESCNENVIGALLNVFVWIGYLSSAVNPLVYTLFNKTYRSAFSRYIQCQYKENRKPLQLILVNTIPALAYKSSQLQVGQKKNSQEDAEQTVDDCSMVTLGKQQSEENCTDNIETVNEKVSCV
# EXPERIMENT DESCRIPTION: 5-HT2A competitive radioligand binding assay with [3H]ketanserin, frontal cortex membranes
# Set-up: species or system Sprague–Dawley rats
# TEST PARAMETERS: read-out: 5-HT2A Ki (nM, 95% CI)

COMPOUND	Ki [nM]
COc1ccccc1N1CCN(CC(O)COc2cc3oc(=O)cc(C)c3cc2C(C)=O)CC1 (stereo not drawn)	1850
COc1ccccc1N1CCN(CC(O)COc2ccc3c(C)cc(=O)oc3c2C(C)=O)CC1 (stereo not drawn)	6160
COc1ccccc1N1CCN(CC(O)COc2cc(C)cc3oc(=O)cc(C)c23)CC1 (stereo not drawn)	1180

Values compiled from paper PMC11900313.
